# Target Desc: Focal Adhesion Kinase (FAK) (Homo sapiens, UniProt Q05397)
# Sequence (Q05397 384-706): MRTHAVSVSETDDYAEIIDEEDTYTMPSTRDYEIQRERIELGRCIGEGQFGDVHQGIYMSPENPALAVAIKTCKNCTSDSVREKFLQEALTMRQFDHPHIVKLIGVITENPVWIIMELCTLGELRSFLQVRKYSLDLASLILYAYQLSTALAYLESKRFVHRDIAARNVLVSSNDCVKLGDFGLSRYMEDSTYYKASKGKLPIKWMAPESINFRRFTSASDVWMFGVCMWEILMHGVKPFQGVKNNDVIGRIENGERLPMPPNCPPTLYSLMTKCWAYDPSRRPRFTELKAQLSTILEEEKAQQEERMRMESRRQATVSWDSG
# Experiment Summary: FAK assay system (Focal Adhesion Kinase inhibition)
# Type: biochemical
# Condition Set: read-out: FAK IC50
Give pIC50 for every item shown.
Answers are plain numbers, as −log10 of the molar value.

1. CNS(=O)(=O)c1ccccc1Nc1nc(Nc2cc(N3CCOCC3)ccc2C)ncc1Br [Example 3-20]	7.80
2. CNS(=O)(=O)c1ccccc1Nc1nc(Nc2ccc(OCC3CCN(C)CC3)cc2OC)ncc1Cl [Example 20-25]	8.21
3. CNC(=O)c1cc(N2CCOCC2)ccc1Nc1nc(Nc2ccc(N3CCN(C(C)=O)CC3)cc2OC)ncc1Cl [Example 18-1]	7.72
4. CNS(=O)(=O)c1ccccc1Nc1nc(Nc2ccc(N(CCOC)CCOC)cc2OC)ncc1Br [Example 3-42]	7.54
5. CC(C)NS(=O)(=O)c1ccccc1Nc1nc(Nc2ccc(OCCN3CCOCC3)cc2F)ncc1Cl [Example 19-26]	8.21

Kindly give each listed record's pIC50.
1. CCCS(=O)(=O)c1ccccc1Nc1nc(Nc2ccc(N3CC(C)N(C(C)=O)C(C)C3)cc2OC)ncc1Cl (stereo not shown) [Example 26-7]
2. CNS(=O)(=O)c1ccccc1Nc1nc(Nc2cc(N3CCN(C(C)=O)CC3)ccc2OC)ncc1Cl [Example 20-34]
3. CNS(=O)(=O)c1ccccc1Nc1nc(Nc2ccc(N3CCN(C(C)=O)CC3)cc2OC)ncc1Cl [Example 20-2]
4. CNS(=O)(=O)c1ccccc1Nc1nc(Nc2ccc(N3CCN(C(C)=O)CC3)cc2OC)ncc1Br [Example 3-46]
5. CCOc1ccc(-c2ccc(OC)cc2)cc1Nc1ncc(Br)c(Nc2ccccc2S(=O)(=O)NC)n1 [Example 3-30]
6. CNS(=O)(=O)c1ccccc1Nc1nc(Nc2ccc(OC3CCNCC3)cc2OC)ncc1Br [Example 3-79]
7. COc1cc(N2CCOCC2)ccc1Nc1ncc(Cl)c(Nc2ccccc2S(=O)(=O)C(C)C)n1 [Example 28-3]

// result
1. 7.96
2. 7.89
3. 8.05
4. 8.40
5. 7.16
6. 8.30
7. 8.13
